biological target: HCV polymerase (NS5B) type 1b (Hepatitis C virus genotype 1b, UniProt P26663); construct: a region encoding NS5B (J Virol 1991 March, 65(3), 1105-13, 544 amino acids after deletion of 47 amino acids on the C-terminal); 6xHis (C); made in house; host or cells: Escherichia coli; test: Assay of enzyme (HCV polymerase) inhibitory activity, type 1b enzyme; assay type: biochemical, HCV BK strain (type 1b); details: HCV polymerase inhibitory activity (IC50), 1b, type 1b enzyme 0.5 μg/ml, 25° C., 60 min
Sequence (P26663 2420-2963): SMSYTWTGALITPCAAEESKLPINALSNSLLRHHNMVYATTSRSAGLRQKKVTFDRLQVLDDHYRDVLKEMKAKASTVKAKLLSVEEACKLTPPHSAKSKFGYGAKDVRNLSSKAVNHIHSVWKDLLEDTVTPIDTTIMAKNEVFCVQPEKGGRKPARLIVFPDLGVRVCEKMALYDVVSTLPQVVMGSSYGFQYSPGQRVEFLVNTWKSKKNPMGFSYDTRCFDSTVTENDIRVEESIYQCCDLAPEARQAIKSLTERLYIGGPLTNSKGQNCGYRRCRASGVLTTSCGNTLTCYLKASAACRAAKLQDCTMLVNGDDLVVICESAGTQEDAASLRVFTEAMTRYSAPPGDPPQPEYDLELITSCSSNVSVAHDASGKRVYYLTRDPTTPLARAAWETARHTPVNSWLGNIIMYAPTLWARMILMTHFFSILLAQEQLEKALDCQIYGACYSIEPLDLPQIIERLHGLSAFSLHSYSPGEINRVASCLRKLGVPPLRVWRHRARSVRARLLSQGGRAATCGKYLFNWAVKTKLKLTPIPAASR
pIC50: −log10 of the molar value.
Known pIC50 of a selection of compounds
Outcome Measure: pIC50

CCOC(=O)COc1cccc(NC(=O)N2CCN(S(=O)(=O)c3ccc(C(F)(F)F)cc3)[C@@H](C(=O)NCc3ccc(C(C)C)cc3)C2)c1; 6.00 to 7.00
CCOC(=O)c1cnc(N2CCN(S(=O)(=O)c3ccc(C(F)(F)F)cc3)[C@@H](C(=O)NCc3ccc(C(C)C)cc3)C2)nc1O; 6.00 to 7.00
CCCc1ccc(CNC(=O)[C@H]2CN(c3cc(C)c(C(N)=O)nn3)CCN2S(=O)(=O)c2ccc(OC(F)(F)F)cc2)cc1; > 7.00
Cc1nc(N2CCN(S(=O)(=O)c3ccc(C(F)(F)F)cc3)[C@@H](C(=O)NCc3ccc(C(C)C)cc3)C2)sc1C(=O)O; > 7.00
CCCc1ccc(CNC(=O)[C@H]2CN(c3nc(C)c(C(N)=O)s3)CCN2S(=O)(=O)c2ccc(OC(F)(F)F)cc2)cc1; > 7.00
COC(=O)c1cc(S(=O)(=O)N2CCN(C(C)=O)C[C@@H]2C(=O)NCc2ccc(C(C)C)cc2)ccc1OC; < 6.00
